Test system: Staphylococcus aureus 446
assay method text: MIC, standard broth micro-dilution assay, SA 446
Assay type: cell-based
The reader will find reported minimal inhibitory concentration (MIC), SA 446 values listed item by item below.
Please reply with the value in numeric form only.

Worked cases, minimal inhibitory concentration (MIC), SA 446 given:
// minimal inhibitory concentration (MIC), SA 446 lookup, compound = CC1OC(OC2c3ccc(c(Cl)c3)Oc3cc4cc(c3OC3OC(CO)C(O)C(O)C3OC3CC(C)(NCc5ccc(-c6ccccc6)cc5)C(O)C(C)O3)Oc3ccc(cc3Cl)C(O)C(NC(=O)C3CCCN3C(=O)OC(C)(C)C)C(=O)NC(CC(N)=O)C(=O)NC4C(=O)NC3C(=O)NC2C(=O)NC(C(=O)O)c2cc(O)cc(O)c2-c2cc3ccc2O)CC(C)(N)C1O (centres unmarked) [Example 29] , result: 2

Value of minimal inhibitory concentration (MIC), SA 446 reported for the compound CSCCC(NC(=O)OC(C)(C)C)C(=O)NC1C(=O)NC(CC(N)=O)C(=O)NC2C(=O)NC3C(=O)NC(C(=O)NC(C(=O)O)c4cc(O)cc(O)c4-c4cc3ccc4O)C(OC3CC(C)(N)C(O)C(C)O3)c3ccc(c(Cl)c3)Oc3cc2cc(c3OC2OC(CO)C(O)C(O)C2OC2CC(C)(NCc3ccc(-c4ccccc4)cc3)C(O)C(C)O2)Oc2ccc(cc2Cl)C1O (centres unmarked) is 1

Lab book: minimal inhibitory concentration (MIC), SA 446 of CC1OC(OC2c3ccc(c(Cl)c3)Oc3cc4cc(c3OC3OC(CO)C(O)C(O)C3OC3CC(C)(NCc5ccc(-c6ccccc6)cc5)C(O)C(C)O3)Oc3ccc(cc3Cl)C(O)C(NC(=O)c3ccc(-c5ccccc5)cc3)C(=O)NC(CC(N)=O)C(=O)NC4C(=O)NC3C(=O)NC2C(=O)NC(C(=O)O)c2cc(O)cc(O)c2-c2cc3ccc2O)CC(C)(N)C1O (centres unmarked) noted as 1

Now for another entry.
What the record says about CC1OC(OC2c3ccc(c(Cl)c3)Oc3cc4cc(c3OC3OC(CO)C(O)C(O)C3OC3CC(C)(NCc5ccc(-c6ccccc6)cc5)C(O)C(C)O3)Oc3ccc(cc3Cl)C(O)C(NC(=O)C(N)CCCCN)C(=O)NC(CC(N)=O)C(=O)NC4C(=O)NC3C(=O)NC2C(=O)NC(C(=O)O)c2cc(O)cc(O)c2-c2cc3ccc2O)CC(C)(N)C1O (centres unmarked) [Example 31] : minimal inhibitory concentration (MIC), SA 446 is 0.5
